- system name: DPIV (Homo sapiens, UniProt P27487)
- Sequence (P27487 whole entry): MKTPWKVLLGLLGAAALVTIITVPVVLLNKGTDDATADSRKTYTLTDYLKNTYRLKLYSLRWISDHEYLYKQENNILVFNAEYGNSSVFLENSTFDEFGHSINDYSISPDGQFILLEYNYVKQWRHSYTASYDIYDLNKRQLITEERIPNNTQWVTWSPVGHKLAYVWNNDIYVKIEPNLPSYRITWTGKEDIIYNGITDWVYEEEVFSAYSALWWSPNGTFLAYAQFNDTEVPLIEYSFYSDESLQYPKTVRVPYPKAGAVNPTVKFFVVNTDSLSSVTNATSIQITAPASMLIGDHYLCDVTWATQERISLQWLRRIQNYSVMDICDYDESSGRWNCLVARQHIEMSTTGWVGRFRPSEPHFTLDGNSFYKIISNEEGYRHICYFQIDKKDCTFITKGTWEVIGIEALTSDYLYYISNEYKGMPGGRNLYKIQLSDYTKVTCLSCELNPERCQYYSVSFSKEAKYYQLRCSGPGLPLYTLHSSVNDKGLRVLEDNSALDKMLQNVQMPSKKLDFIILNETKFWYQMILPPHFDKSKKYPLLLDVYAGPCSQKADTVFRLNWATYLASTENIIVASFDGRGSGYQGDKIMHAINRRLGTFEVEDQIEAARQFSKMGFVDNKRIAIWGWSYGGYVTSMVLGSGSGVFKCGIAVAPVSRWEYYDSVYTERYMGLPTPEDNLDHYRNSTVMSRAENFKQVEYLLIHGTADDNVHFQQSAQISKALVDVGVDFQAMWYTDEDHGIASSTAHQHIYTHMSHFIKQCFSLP
pIC50: −log10 of the molar value.
measurement kind: pIC50

>  <compound>
C[C@@H](B(O)O)N1CCC(N)C1=O (stereo partly shown) [B]

>  <system name>
DPIV (Homo sapiens, UniProt P27487)

>  <test result>
7.40

$$$$
>  <compound>
CC[C@H](B(O)O)N1CC[C@](N)(CC)C1=O [Compound I]

>  <system name>
DPIV (Homo sapiens, UniProt P27487)

>  <test result>
7.60

$$$$

(I) CCCC[C@@]1(N)CCN([C@@H](C)B(O)O)C1=O [J]
(II) CC(B(O)O)N1CCC(C)(N)C1=O (stereo not shown) [E]
(III) CN[C@]1(Cc2ccccc2)CCN([C@@H](C)B(O)O)C1=O [O]
(IV) C[C@H](B(O)O)N1CCC(N)C1=O (stereo partly shown) [C]
(V) C[C@@H](B(O)O)N1CC[C@@](C)(N)C1=O [G]
Ascending by pIC50, please: list the compounds accordingly. Thanks in advance for listing the labels in the requested order. III, IV, II, V, I
